molecular target: Recombinant human his-tagged IGF 1R extracellular domain protein (human) (UniProt P08069); test: SPR, captured IgG, IGF-1R ECD-his analyte, dissociation pH 6
# Kd annotations
Please reply with the bare figure in nM and do not write the unit itself.

These recorded examples may help you get a feel for the data.
stdin: Need Kd, item VRDN-02503 (antibody, V domains shown) VH: EVQLVQSGGGLVKPGGSLRLSCAASGFHFSSFAMHWVRQAPGKGLEWISVIDTRGATYYADSVKGRFTISRDNAKNSLYLQMNSLRAEDTAVYYCARLGNFYYGMDVWGQGTTVTVSS VL: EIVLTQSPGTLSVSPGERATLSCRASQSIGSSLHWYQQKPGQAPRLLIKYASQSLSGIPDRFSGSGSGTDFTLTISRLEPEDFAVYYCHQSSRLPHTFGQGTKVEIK
stdout: 0.0262

stdin: # iterate: VRDN-02557 (antibody, V domains shown) VH: EVQLVQSGGGLVKPGGSLRLSCAASGFTFSSFAMHWVRQAPGKGLEWISVIDTRGATYYADSVKGRFTISRDNAKNSLYLQMNSLRAEDTAVYYCARLGNFYYGHDVWGQGTTVTVSS VL: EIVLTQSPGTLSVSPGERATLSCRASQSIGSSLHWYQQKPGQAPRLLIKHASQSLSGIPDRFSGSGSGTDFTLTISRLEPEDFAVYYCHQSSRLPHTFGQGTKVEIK
stdout: 0.615

stdin: # iterate: VRDN-02569 (antibody, V domains shown) VH: EVQLVQSGGGLVKPGGSLRLSCAASGFTFSSFHMHWVRQAPGKGLEWISVIHTRGATYYADSVKGRFTISRDNAKNSLYLQMNSLRAEDTAVYYCARLGNFYYGMDVWGQGTTVTVSS VL: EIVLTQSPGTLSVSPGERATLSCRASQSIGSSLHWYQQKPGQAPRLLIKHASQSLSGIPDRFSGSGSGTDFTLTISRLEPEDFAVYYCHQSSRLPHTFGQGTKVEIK
stdout: 1.51

stdin: # iterate: VRDN-02505 (antibody, V domains shown) VH: EVQLVQSGGGLVKPGGSLRLSCAASGFTFHSFAMHWVRQAPGKGLEWISVIDTRGATYYADSVKGRFTISRDNAKNSLYLQMNSLRAEDTAVYYCARLGNFYYGMDVWGQGTTVTVSS VL: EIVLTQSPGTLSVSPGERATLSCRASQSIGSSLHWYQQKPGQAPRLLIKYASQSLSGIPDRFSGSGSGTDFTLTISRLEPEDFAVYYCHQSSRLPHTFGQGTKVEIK
stdout: 0.0422

stdin: # iterate: VRDN-02529 (antibody, V domains shown) VH: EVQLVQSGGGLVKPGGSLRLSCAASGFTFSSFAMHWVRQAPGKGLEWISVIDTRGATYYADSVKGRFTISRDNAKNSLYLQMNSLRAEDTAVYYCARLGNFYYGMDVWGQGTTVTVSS VL: EIVLTQSPGTLSVSPGERATLSCRHSQSIGSSLHWYQQKPGQAPRLLIKYASQSLSGIPDRFSGSGSGTDFTLTISRLEPEDFAVYYCHQSSRLPHTFGQGTKVEIK
stdout: 0.0541

We now examine a further binder.
stdin: Need Kd, item VRDN-02515 (antibody, V domains shown) VH: EVQLVQSGGGLVKPGGSLRLSCAASGFTFSSFAMHWVRQAPGKGLEWISVIDTRGAHYYADSVKGRFTISRDNAKNSLYLQMNSLRAEDTAVYYCARLGNFYYGMDVWGQGTTVTVSS VL: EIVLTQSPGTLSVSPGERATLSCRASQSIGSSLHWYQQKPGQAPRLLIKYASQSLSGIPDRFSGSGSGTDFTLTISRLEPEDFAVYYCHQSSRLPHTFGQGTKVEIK
stdout: 0.692
